Where do the numbers come from? From patent US10770169B2.

system: panel of 55 breast cancer cell lines; assay: Cell growth inhibition assay (Cell Titer Glo, 72 h, 9 doses; GI50, TGI, LC50); type: cell-based, human; settings: cell line HCC2185; value is the negative log10 of mol/L
REPORTED METRIC: GI50

>>> reported("O=C1NC(=O)/C(=C/c2ccc(-c3ccc(F)cc3O)o2)S1 [AS-252424]")
4.46
>>> reported("O=C1C(Cl)=C(NCCN2CCOCC2)C(=O)c2ncccc21 [NSC 663284]")
5.96
>>> reported("COc1ccc(C2=N[C@@H](c3ccc(Cl)cc3)[C@@H](c3ccc(Cl)cc3)N2C(=O)N2CCNC(=O)C2)c(OC(C)C)c1 [Nutlin 3a]")
4.81
>>> reported("CC(C)Oc1ccc(C(=O)N[C@H](CNC(=O)CN(C)C)Cc2ccc(-c3cn4cccc([C@H](C)O)c4n3)cc2)cc1Cl [GSK923295]")
7.43
>>> reported("CC(C)[C@H](CO)Nc1nc(Nc2cccc(Cl)c2)c2ncn(C(C)C)c2n1 [Purvalanol A]")
4.57
>>> reported("NC(=O)Nc1sc(-c2ccc(F)cc2)cc1C(N)=O [TPCA-1]")
5.36
>>> reported("COc1cc2ncnc(Nc3cccc(Cl)c3)c2cc1OC [AG1478]")
4.33
>>> reported("O=S(=O)(CC1CS1)c1ccc(Oc2ccccc2)cc1 (stereo not drawn) [SB-3CT]")
4.21
>>> reported("CC(C)(C)c1cc(C=C(C#N)C#N)cc(Br)c1O [AG1024]")
5.11
